// reported pIC50 for each item listed
TARGET_DESC: T1, Human TNFR2 expressed on cells (CHO-hTNFR2 cells) (human, UniProt P20333 23-461)
T1 construct: also called CHO cells overexpressing human TNFR2; human TNFR2 reporter cells (HEK293)
T1 sequence: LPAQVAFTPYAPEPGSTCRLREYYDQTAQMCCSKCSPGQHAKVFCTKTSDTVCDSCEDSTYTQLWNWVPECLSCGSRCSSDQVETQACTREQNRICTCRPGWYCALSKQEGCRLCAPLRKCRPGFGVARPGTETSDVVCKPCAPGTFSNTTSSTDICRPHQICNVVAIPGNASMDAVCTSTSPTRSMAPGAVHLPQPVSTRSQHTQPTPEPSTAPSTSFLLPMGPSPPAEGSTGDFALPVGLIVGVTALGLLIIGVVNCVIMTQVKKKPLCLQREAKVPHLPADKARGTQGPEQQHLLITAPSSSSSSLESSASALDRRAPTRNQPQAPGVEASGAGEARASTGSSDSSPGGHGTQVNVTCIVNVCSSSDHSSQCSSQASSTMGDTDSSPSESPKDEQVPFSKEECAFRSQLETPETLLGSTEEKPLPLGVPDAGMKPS
ASSAY_TEXT: flow cytometry; soluble scFv inhibiting TNF (1 nM) binding to CHO-hTNFR2 cells (FIGS. 5A-5B)
By convention, pIC50 is the negative base-10 log of a molar concentration.

INSERT INTO results (binder, observed_value) VALUES
  ('UC2.3 (S4-2 1D10-1G9) scFv (scFv) scFv: QVQLLESGGGLVQPGGSLRLSCAASGFTFSTYAMSWIRQAPGKGLEWVSIISDGGDATVYADSVKGRFTISRDNSKNTLYLQMNSLRAEDTAVYYCARDGTSAAAFDSWGQGTLVTVSSASSGGSTSGSGKPGSGEGSSGSARDIQMTQSPSSLSASVGDRVTITCQASQDITNFLNWYQQKPGKAPKLLIYDASTLQTGVPSRFSGSGSGTDFTFTISSLQPEDIATYYCQQSDSYPITFGQGTKVEIKR', 8.18),
  ('UC1.1 (S4-2 1B5-1D9) scFv (scFv) scFv: QVQLLESGGGLVQPGGSLRLSCAASGFSFTSYAMTWVRQAPGKGLEWVSGISGGGAATFYADSVKGRFTISRDNSKNTLYLQMNSLRAEDTAVYYCARQSQYVGGFDYWGQGTLVTVSSASSGGSTSGSGKPGSGEGSSGSARQSVLTQPPSVSGAPGQRVTISCTGSSSNIGAGYGVHWYQQLPGTAPKLLIHGNTNRPSGVPDRFSGFKSGTSASLAITGLQAEDEADYYCQSYDSSLSGWVFGGGTKLTVLG', 7.97),
  ('UC2 (S4-2 1D10) scFv (scFv) scFv: QVQLLESGGGLVQPGGSLRLSCAASGFTFSTYAMSWVRQAPGKGLEWVSIISDGGDATFYADSVKGRFTISRDNSKNTLYLQMNSLRAEDTAVYYCARDGTSAAAFDSWGQGTLVTVSSASSGGSTSGSGKPGSGEGSSGSARDIQMTQSPSSLSASVGDRVTITCQASQDITNFLNWYQQKPGKAPKLLIYDASTLQTGVPSRFSGSGSGTDFTFTISSLQPEDIATYYCQQSDSYPITFGQGTKVEIKR', 7.40);

--- query ---
Entry UC1 (S4-2 1B5) scFv (scFv) scFv: QVQLLESGGGLVQPGGSLRLSCAASGFSFTSYAMTWVRQAPGKGLEWVSGISGGGAATFYADSVKGRFTISRDNSKNTLYLQMNSLRAEDTAVYYCARQSQYVGGFDYWGQGTLVTVSSASSGGSTSGSGKPGSGEGSSGSARQSVLTQPPSVSGAPGQRVTISCTGSSSNIGAGYGVHWYQQLPGTAPKLLIYGNTNRPSGVPDRFSGFKSGTSASLAITGLQAEDEADYYCQSYDSSLSGWVFGGGTKLTVLG needs its pIC50 filled in; supply it.
8.35

From: patent US20220281990A1
